Tested on: MDA-MB-231
test_protocol: Antiproliferative activity against human MDA-MB-231 cells after 72 hrs by colorimetric tetrazolium assay
Format: functional, cell-based
condition_details: MDA-MB-231, 72 h
pIC50: −log10 of the molar value.
value_kind: pIC50

Recorded pIC50, per entry:
Cc1cccc(-c2ccc3c(c2)c(CC(N)=O)cn3Cc2cccc(C(F)(F)F)c2)c1    4.76
CCN(CC)Cc1cn(CC=C(C)C)c2ccc(F)cc12    4.49
CCCCCCCCn1cc(CC(=O)N2CCCC2)c2cc(-c3cccc(C)c3)ccc21    4.81
CCCCCCCCn1cc(CN2CCOCC2)c2cc(-c3cccc(C)c3)ccc21    4.61
CCN(CC)Cc1cn(CC=C(C)C)c2ccccc12    4.13
CCCCCCCCn1cc(CN)c2cc(-c3cccc(C)c3)ccc21    5.54

(P) CCCCCCCCn1cc(CN2CCN(C)CC2)c2cc(-c3cccc(C)c3)ccc21
(Q) CC(C)=CCn1cc(CC(N)=O)c2cc(-c3cccc(C)c3)ccc21
Which item exceeds the other in pIC50, P or Q ? State your choice using its label.
P

(a) CCCCCCCCn1cc(CN(CCC)CCC)c2cc(-c3cccc(C)c3)ccc21
(b) CCCCCCCCn1cc(CN(CC)CC)c2cc(-c3ccccc3C)ccc21
(c) CCCCCCCCn1cc(CN(CC)CC)c2cc(-c3ccc(C)cc3)ccc21
Ascending by pIC50, please. Output the labels ranked as instructed.
a, b, c

(I) CCCCCCCCn1cc(CN(C)C(C)C)c2cc(-c3cccc(C)c3)ccc21
(II) CC(C)=CCC/C(C)=C/Cn1cc(CC(N)=O)c2cc(-c3cccc(C)c3)ccc21
Which item exceeds the other in pIC50, I or II ? State your choice using its label.
I

(P) CCN(CC)Cc1cn(CC=C(C)C)c2ccc(-c3cccc(C)c3)cc12
(Q) CCCCCCCCn1cc(CC(N)=O)c2cc(F)ccc21
Hello, I am sorting some records. Could you say if P or Q has the smaller pIC50 value? State your choice using its label.
Q

(I) CCCCCCCCn1cc(CN2CCCC2)c2cc(-c3cccc(C)c3)ccc21
(II) CCCCCCCCn1cc(CC(N)=O)c2ccccc21
Which item exceeds the other in pIC50, I or II ? State your choice using its label.
I
(I: 5.29, II: 4.30)
